Target: PI3K-α (Homo sapiens)
Sequence (P42336 whole entry, species assumed): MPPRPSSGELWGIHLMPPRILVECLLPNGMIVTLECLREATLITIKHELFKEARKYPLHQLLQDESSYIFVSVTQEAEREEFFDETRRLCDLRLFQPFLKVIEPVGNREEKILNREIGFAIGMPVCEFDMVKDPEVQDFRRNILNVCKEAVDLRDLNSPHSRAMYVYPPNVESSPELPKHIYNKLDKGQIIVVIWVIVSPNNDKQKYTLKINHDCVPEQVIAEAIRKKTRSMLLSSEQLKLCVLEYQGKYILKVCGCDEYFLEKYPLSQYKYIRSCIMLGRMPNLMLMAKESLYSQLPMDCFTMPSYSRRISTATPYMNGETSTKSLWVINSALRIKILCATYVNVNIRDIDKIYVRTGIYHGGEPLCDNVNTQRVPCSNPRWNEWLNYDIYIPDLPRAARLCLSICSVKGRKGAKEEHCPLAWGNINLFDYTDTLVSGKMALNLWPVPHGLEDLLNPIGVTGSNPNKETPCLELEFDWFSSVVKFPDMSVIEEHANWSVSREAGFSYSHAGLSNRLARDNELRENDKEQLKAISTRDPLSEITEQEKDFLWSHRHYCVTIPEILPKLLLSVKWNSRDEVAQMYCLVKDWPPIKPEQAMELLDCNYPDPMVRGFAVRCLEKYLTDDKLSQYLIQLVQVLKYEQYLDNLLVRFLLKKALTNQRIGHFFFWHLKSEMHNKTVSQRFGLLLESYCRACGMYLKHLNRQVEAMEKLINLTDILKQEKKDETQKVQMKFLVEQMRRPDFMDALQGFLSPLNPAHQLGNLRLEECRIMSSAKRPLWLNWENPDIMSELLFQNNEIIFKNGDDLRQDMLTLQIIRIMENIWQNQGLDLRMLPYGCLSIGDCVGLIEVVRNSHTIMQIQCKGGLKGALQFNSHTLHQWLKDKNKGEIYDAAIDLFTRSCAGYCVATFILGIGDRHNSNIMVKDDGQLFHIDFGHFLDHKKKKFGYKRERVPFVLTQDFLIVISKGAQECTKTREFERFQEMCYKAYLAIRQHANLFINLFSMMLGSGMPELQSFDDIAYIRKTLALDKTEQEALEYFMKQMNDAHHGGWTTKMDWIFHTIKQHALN
Sequence (P27986 whole entry partner, species assumed): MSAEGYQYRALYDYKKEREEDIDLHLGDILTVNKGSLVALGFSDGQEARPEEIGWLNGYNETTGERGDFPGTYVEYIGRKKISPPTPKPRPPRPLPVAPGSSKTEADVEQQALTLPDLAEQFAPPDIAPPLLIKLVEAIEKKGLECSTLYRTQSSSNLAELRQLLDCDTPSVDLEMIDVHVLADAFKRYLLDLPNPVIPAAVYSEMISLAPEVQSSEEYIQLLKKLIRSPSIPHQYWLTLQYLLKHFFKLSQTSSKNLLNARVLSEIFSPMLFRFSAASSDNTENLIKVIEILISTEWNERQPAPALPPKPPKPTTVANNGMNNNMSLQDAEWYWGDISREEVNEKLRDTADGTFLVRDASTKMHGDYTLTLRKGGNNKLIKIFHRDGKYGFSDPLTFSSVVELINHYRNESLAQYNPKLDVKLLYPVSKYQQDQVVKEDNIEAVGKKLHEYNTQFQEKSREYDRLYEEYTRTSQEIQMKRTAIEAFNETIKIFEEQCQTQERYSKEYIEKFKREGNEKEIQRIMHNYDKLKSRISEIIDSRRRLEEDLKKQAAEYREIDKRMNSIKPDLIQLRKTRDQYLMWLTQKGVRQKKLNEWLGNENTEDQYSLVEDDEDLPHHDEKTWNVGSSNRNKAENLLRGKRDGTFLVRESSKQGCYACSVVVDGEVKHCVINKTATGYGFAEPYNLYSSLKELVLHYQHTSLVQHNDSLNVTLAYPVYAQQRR
Assay: PI3K-alpha fluorescence polarization assay
Conditions: read-out: IC50 PI3Kα; listed as 718
Measurement Kind: IC50 (nM)
The response must be a number in nM with no trailing unit.

// IC50 lookup, molecule = `O=C(Nc1ccncc1)Nc1ccc(-c2nc(CCNc3ccncc3)nc(N3CCOCC3)n2)cc1` , result: 40.5

###

Target: PI3K-α (Homo sapiens)
Experiment: PI3K-alpha fluorescence polarization assay
Conditions: read-out: IC50 PI3Kα; listed as 676
Measurement Kind: IC50 (nM)
The response must be a number in nM with no trailing unit.

Log: PI3K-α (Homo sapiens), molecule Cc1ccc(NC(=O)Nc2ccc(-c3nc(N4CCOCC4)nc(N4C5CCC4COC5)n3)cc2)cc1 [Example 41] , IC50 = 69.5
